- assay remarks: ATG_PPRE_CIS: Attagene CIS-FACTORIAL HepG2 Assay for human Peroxisome Proliferator-activated Response Element (PPRE) (AID 2282958)
- experimental parameters: HepG2 PPRE cis-element reporter, Attagene transcription factor profiling; actives raise or lower the signal
Calls of active or inactive are those of the source. How the source made its calls: active means hit-call score of the fitted dose curve at least 0.9, where 1 is the maximum; inactive means score below 0.9.
Possible outcomes: 1.0 = active, 0.0 = inactive

CCC(Cc1ccccc1)(C(=O)c1ccc(N2CCOCC2)cc1)N(C)C (stereo not given); 0.0
CCCc1ccc(OC)cc1; 0.0
CC(C)(c1cc(Br)c(OCCO)c(Br)c1)c1cc(Br)c(OCCO)c(Br)c1; 0.0
CC(C)(C)C(=O)CCc1ccc(Cl)cc1; 0.0
CCc1nccnc1C; 0.0
CCCCCCCCCCCCCOP(=O)(O)O; 0.0
CC(C)(C)c1ccc(N)cc1; 0.0
CC(C)c1ccc2c(C(C)C)cc(C(C)C)c(S(=O)(=O)O)c2c1; 0.0
Nc1ccc2cc3ccccc3cc2c1; 0.0
COCCOCCOCCOCCOC; 0.0
NC(=O)N=NC(N)=O; 0.0
Cc1cccc(N)n1; 0.0
FC(F)=C(F)OC(F)(F)C(F)(F)C(F)(F)F; 0.0
O=CC1CC1; 0.0
CO[Si](CCC1CCC2OC2C1)(OC)OC (stereo not given); 0.0
CCCCCCCCCCCCCCCC[N+](C)(C)CC; 0.0
O=S(=O)(Oc1ccc(Cl)cc1Cl)c1ccccc1; 0.0
C#CC1(O)CC[C@H]2[C@@H]3CCC4=CCCC[C@@H]4[C@H]3CC[C@@]21C (stereo not given in full); 1.0
CC(C)CCCCCOC(=O)CCS; 0.0
Clc1nc2ccccc2s1; 0.0
O=S(=O)(O)c1ccccc1C=Cc1ccc(-c2ccc(C=Cc3ccccc3S(=O)(=O)O)cc2)cc1; 0.0
Cc1cc(C)c(C)c(C)c1; 0.0
Cc1cc(C)c(C)cc1C; 0.0
CCN(CCC#N)c1ccc(N=Nc2c(Cl)cc([N+](=O)[O-])cc2Cl)cc1; 0.0
CCCNC(=O)NS(=O)(=O)c1ccc(Cl)cc1; 0.0
